tgt: human serotonin transporters (Homo sapiens, UniProt P31645)
Sequence (P31645 whole entry): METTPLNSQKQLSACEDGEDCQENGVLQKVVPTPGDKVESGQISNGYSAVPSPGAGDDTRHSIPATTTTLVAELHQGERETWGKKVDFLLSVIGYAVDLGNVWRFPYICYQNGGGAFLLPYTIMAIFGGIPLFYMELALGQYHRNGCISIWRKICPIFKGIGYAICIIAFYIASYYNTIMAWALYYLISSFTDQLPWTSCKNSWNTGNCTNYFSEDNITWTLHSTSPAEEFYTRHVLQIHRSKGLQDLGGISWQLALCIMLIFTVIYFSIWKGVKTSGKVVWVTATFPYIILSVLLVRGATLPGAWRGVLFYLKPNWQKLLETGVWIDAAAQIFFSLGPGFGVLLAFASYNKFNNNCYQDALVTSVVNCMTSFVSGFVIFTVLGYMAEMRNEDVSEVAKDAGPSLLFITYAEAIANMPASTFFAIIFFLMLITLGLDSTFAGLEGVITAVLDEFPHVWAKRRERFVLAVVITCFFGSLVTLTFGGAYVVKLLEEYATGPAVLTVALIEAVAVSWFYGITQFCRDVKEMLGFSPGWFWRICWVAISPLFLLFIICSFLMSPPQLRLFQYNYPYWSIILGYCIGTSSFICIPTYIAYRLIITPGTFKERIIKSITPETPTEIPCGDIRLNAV
pIC50: −log10 of the molar value.
Catalogue of pIC50 values
measure name: pIC50

molecule	readout value
CN(C)CC(O)(COCc1cc(C(F)(F)F)cc(C(F)(F)F)c1)c1ccccc1 (centres unmarked)	6.52 to 7.00
COc1ccc(C(O)(CCN)COCc2cc(C(F)(F)F)cc(C(F)(F)F)c2)cc1OC (centres unmarked)	7.00 to 9.00
NCCC(O)(COCc1ccc(Br)cc1)c1ccccc1 (centres unmarked)	6.52 to 7.00
Cc1cc(Cl)ccc1C(O)(CCN)COCc1cc(C(F)(F)F)cc(C(F)(F)F)c1 (centres unmarked)	7.00 to 9.00
NCCC(O)(COCc1cc(Br)cc(Br)c1)c1ccccc1 (centres unmarked)	7.00 to 9.00

* * *

tgt: neurokinin-1 (NK-1) receptor (Homo sapiens)
Construct: endogenously expresses the neurokinin-1 (NK-1) receptor; endogenous in cells
Sequence (P25103 whole entry): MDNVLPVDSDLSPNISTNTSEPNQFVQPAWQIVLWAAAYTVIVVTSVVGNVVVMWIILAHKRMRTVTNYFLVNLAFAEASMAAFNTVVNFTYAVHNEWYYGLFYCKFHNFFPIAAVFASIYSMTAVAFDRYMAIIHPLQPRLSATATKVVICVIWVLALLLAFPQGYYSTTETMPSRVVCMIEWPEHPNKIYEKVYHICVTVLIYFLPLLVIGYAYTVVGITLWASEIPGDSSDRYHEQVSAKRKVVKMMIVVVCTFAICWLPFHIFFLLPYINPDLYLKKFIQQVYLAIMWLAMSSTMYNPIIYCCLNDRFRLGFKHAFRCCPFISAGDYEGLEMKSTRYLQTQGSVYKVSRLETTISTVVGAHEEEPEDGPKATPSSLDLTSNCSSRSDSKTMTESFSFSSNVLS
protocol summary: NK-1 Binding assay ([125I] Substance P competition, U373 cell membranes)
test parameters: Bolton Hunter labeled [125I] Substance P, 30 min at 20° C.

compound	IC50
NCCC(O)(COCc1cc(F)cc(F)c1)c1ccccc1 (centres unmarked)	100 to 300 nM
Cc1ccccc1C(O)(CCN)COCc1cc(C(F)(F)F)cc(C(F)(F)F)c1 (centres unmarked)	1 to 100 nM
COc1ccc(F)cc1C(O)(CCN)COCc1cc(C(F)(F)F)cc(C(F)(F)F)c1 (centres unmarked)	1 to 100 nM
Cc1ccc(F)cc1C(O)(CCN)COCc1cc(C(F)(F)F)cc(C(F)(F)F)c1 (centres unmarked)	1 to 100 nM
NCCC(O)(COCc1cc(C(F)(F)F)cc(C(F)(F)F)c1)c1ccccc1 (centres unmarked) [Example 4]	1 to 100 nM

* * *

tgt: neurokinin-1 (NK-1) receptor (Homo sapiens)
Construct: endogenously expresses the neurokinin-1 (NK-1) receptor; endogenous in cells
protocol summary: NK-1 Binding assay ([125I] Substance P competition, U373 cell membranes)
test parameters: Bolton Hunter labeled [125I] Substance P, 30 min at 20° C.

molecule	IC50
NCCC(O)(COCc1cccc(OC(F)(F)F)c1)c1ccccc1 (stereo not drawn)	> 300 nM
Cc1ccc(C)c(C(O)(CCN)COCc2cc(C(F)(F)F)cc(C(F)(F)F)c2)c1 (stereo not drawn)	1 to 100 nM
Cc1cc(C)cc(C(O)(CCN)COCc2cc(C(F)(F)F)cc(C(F)(F)F)c2)c1 (stereo not drawn)	1 to 100 nM
NCCC(O)(CSCc1cc(C(F)(F)F)cc(C(F)(F)F)c1)c1ccccc1 (stereo not drawn)	100 to 300 nM
NCCC(O)(COCc1ccc(C(F)(F)F)cc1)c1ccccc1 (stereo not drawn)	> 300 nM
NCCC(O)(COCc1cc(C(F)(F)F)cc(C(F)(F)F)c1)c1ccccc1 (racemic) [Example 7]	100 to 300 nM
Cc1cc(C(O)(CCN)COCc2cc(C(F)(F)F)cc(C(F)(F)F)c2)ccc1F (stereo not drawn)	1 to 100 nM
COc1cccc(COCC(O)(CCN)c2ccccc2)c1 (stereo not drawn)	> 300 nM
NCCC(O)(COCc1cc(C(F)(F)F)cc(C(F)(F)F)c1)c1ccc2ccccc2c1 (stereo not drawn)	100 to 300 nM
Cc1ccc(C(O)(CCN)COCc2cc(C(F)(F)F)cc(C(F)(F)F)c2)cc1F (stereo not drawn)	1 to 100 nM
NCCC(O)(COCc1cccc(Cl)c1)c1ccccc1 (stereo not drawn)	> 300 nM
COc1ccc(C(O)(CCN)COCc2cc(C(F)(F)F)cc(C(F)(F)F)c2)c(C)c1 (stereo not drawn)	100 to 300 nM
NCCC(O)(COCc1ccccc1Br)c1ccccc1 (stereo not drawn)	> 300 nM
NCCC(O)(COCc1cc(C(F)(F)F)cc(C(F)(F)F)c1)c1cccc(Cl)c1 (stereo not drawn)	1 to 100 nM
NCCC(O)(COCc1cc(Br)cc(Br)c1)c1ccccc1 (stereo not drawn)	1 to 100 nM
COc1cccc(C(O)(CCN)COCc2cc(C(F)(F)F)cc(C(F)(F)F)c2)c1 (stereo not drawn)	1 to 100 nM
NCCC(O)(COCc1cccc(F)c1)c1ccccc1 (stereo not drawn)	> 300 nM
CN(C)CC(O)(COCc1cc(C(F)(F)F)cc(C(F)(F)F)c1)c1ccccc1 (stereo not drawn)	1 to 100 nM
